meta.source: patent US20100280061A1

target: Bn-VAKGL pentapeptide of filamin A (FLNA) (Homo sapiens)
test_method_notes: FITC-NLX-based FLNA screening assay (FLNA peptide binding assay)
particulars: 1 μM compound, 10 nM FITC-NLX
endpoint_name: Percent inhibition of FITC-NLX binding, 1 μM (%)
Give bare numbers, in %.

// worked examples, Percent inhibition of FITC-NLX binding, 1 μM included
COc1cccc(CCC(=O)CC2c3c(cc4c(c3OC)OCO4)CC[N+]2(C)C)c1 (stereo not shown) | 59.1
CCOc1ccc(C(=O)CC2c3c(cc4c(c3OC)OCO4)CC[N+]2(C)C)cc1F (stereo not shown) | 50.6
COc1cc(OC)cc(C(=O)CC2c3c(cc4c(c3OC)OCO4)CC[N+]2(C)C)c1.[I-] (stereo not shown) | 51.0
COc1ccc(OC)c(CCC(=O)CC2c3c(cc4c(c3OC)OCO4)CC[N+]2(C)C)c1 (stereo not shown) | 44.4
COc1ccccc1C(=O)CC1c2c(cc3c(c2OC)OCO3)CC[N+]1(C)C (stereo not shown) | 56.6
COc1ccc(C(=O)CC2c3c(cc4c(c3OC)OCO4)CC[N+]2(C)C)cc1C.[I-] (stereo not shown) | 47.6

// each listed compound needs a value for Percent inhibition of FITC-NLX binding, 1 μM
1. COc1cccc(OC)c1C(=O)CC1c2c(cc3c(c2OC)OCO3)CC[N+]1(C)C.[I-] (stereo not shown)
2. COc1c2c(cc3c1C(CC(O)CCc1ccccc1)N(C)CC3)OCO2 (stereo not shown)
3. COc1ccc(C(=O)CC2c3c(cc4c(c3OC)OCO4)CC[N+]2(C)C)cc1 (stereo not shown)
4. COc1ccc(CCC(O)CC2c3c(cc4c(c3OC)OCO4)CCN2C)cc1 (stereo not shown)
5. COc1cccc(CC(=O)CC2c3c(cc4c(c3OC)OCO4)CC[N+]2(C)C)c1OC (stereo not shown)
6. COc1c2c(cc3c1C(CC(=O)CCc1ccc(Cl)cc1)[N+](C)(C)CC3)OCO2 (stereo not shown)
7. COc1ccccc1CC(O)CC1c2c(cc3c(c2OC)OCO3)CCN1C (stereo not shown)

Output line:
46.4
43.7
47.7
43.9
57.0
44.6
57.6

// each listed compound needs a value for Percent inhibition of FITC-NLX binding, 1 μM
1. COc1c2c(cc3c1C(CC(=O)c1ccc(O)c(C)c1)[N+](C)(C)CC3)OCO2 (stereo not shown)
2. COCOc1ccc(CCC(=O)CC2c3c(cc4c(c3OC)OCO4)CC[N+]2(C)C)cc1.[I-] (stereo not shown)
3. COc1c2c(cc3c1C(CC(=O)c1ccncc1)[N+](C)(C)CC3)OCO2 (stereo not shown)

Output line:
1: 55.0; 2: 57.1; 3: 41.7

---

Task for the reader: assign each of the following compounds its reported MOR agonist activity, [35S]GTPγS binding to Gαo, 1 μM.
target: mu opiate receptor (MOR) (Rattus norvegicus, UniProt P33535)
Construct: from tissue; host or cells: striatal tissue (membrane preparation)
Sequence (P33535 whole entry): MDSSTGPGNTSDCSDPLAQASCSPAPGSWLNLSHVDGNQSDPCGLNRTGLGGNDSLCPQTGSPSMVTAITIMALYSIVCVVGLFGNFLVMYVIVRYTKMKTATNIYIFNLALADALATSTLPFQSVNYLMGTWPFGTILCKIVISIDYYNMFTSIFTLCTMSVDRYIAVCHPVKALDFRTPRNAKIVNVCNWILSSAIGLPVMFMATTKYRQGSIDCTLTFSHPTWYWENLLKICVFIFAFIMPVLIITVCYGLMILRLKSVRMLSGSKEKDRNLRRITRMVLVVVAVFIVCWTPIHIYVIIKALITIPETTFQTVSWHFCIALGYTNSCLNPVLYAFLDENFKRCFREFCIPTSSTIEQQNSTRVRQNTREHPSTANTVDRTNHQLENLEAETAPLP
test_method_notes: [35S]GTPγS binding assay using striatal membranes (MOR agonist activity)
Type: biochemical
Set-up: reference not given here
particulars: 1 μM compound, striatal membranes
Numbers only, in %.

// each listed compound needs a value for MOR agonist activity, [35S]GTPγS binding to Gαo, 1 μM
1. COc1c2c(cc3c1C(CC(=O)CCc1ccccc1)N(C)CC3)OCO2 (stereo not drawn)
2. COc1ccc(CCC(=O)CC2c3c(cc4c(c3OC)OCO4)CCN2C)cc1 (stereo not drawn)
3. COc1ccc(CCC(=O)CC2c3c(cc4c(c3OC)OCO4)CC[N+]2(C)C)cc1 (stereo not drawn)
4. COc1ccc(OC)c(CCC(=O)CC2c3c(cc4c(c3OC)OCO4)CC[N+]2(C)C)c1 (stereo not drawn)

Output line:
[211.0, 235.6, 213.6, 170.0]
